Recorded values, source PubChem BioAssay (NCI).

Test system: SF-295 CNS
assay-notes: NCI tumour cell line growth inhibition, 48 h
measurement-name: GI50

* CCC1=C[C@@H]2CN(C1)Cc1c([nH]c3ccccc13)[C@@](C(=O)OC)(c1cc3c(cc1OC)N(C=O)[C@H]1[C@@](O)(C(=O)OC)[C@H](OC(C)=O)[C@]4(CC)[C@@H]5C[C@@H]5CN5CC[C@]31[C@@H]54)C2 | 0.00156 µM
* CCN(CC)CCOc1ccc(Nc2ncc3cc(-c4ccc(O)cc4)c(=O)n(C)c3n2)cc1 | 13.9 µM
* COc1ccc(CNc2nc3cc(N)cc(N)c3nc2-c2ccccc2)cc1OC | 15.3 µM
* COc1cc(Cl)cc(-c2nn(C(=O)NCCN3CCN(C)CC3)cc2-c2ccncc2)c1 | 7.73 µM
* O=C(c1cc(F)c(Cl)cc1Cl)N1N=C(c2ccccc2)CC1(O)c1ccccc1 (stereo not given) | 32.9 µM

###

System: A549 NSCLC
assay-notes: NCI tumour cell line growth inhibition, 48 h; in the data active = GI50 below about 0.43 µM; inactive = the rest
Outcome codes: TRUE = active, FALSE = inactive

- CC(=O)OCC1OC(OC2CC3C(C)(C)C(OC(C)=O)CC[C@]3(C)C3CCC45CC4(CC[C@H]5C(C)CC(O)[C@@H](O)C(C)(C)O)[C@]23C)C(O)C(O)C1O (some centres not stated): FALSE
- CCCCCCCCCNCCCCCCCCC: FALSE
- O=C(c1cc(F)c(Cl)cc1Cl)N1N=C(c2ccccc2)CC1(O)c1ccccc1 (configuration not stated): FALSE
- COc1ccc2nc(-c3ccccc3)cc(Nc3ccc(C(C)=O)cc3)c2c1: FALSE
- CCN(CC)CCOc1ccc(Nc2ncc3cc(-c4ccc(O)cc4)c(=O)n(C)c3n2)cc1: FALSE
- COc1cc(NC(=O)c2cc(OC)c3ccn(C)c3c2)cc2c1C[C@]1(C)CC[C@@H](O)C(C)(C)[C@H]1O2: FALSE
- N#CC1=C(N)N=C(N2CCCCC2)C(C#N)C12Nc1ccccc1S2 (configuration not stated): FALSE
- Fc1ccc(Oc2nccc(-c3c(-c4ccc(F)cc4)ncn3C3CCNCC3)n2)cc1: FALSE
- CC1(C)NCCC[C@]2(C)[C@H]3C=CC4=C5C[C@](C)(CO)CC[C@]5(C)CC[C@@]4(C)[C@]3(C)CC[C@@H]12: FALSE
- C=C1C[C@@H]2C/C=C/C(=O)C/C(C)=C\C=C\C(=O)O[C@H](C=O)C/C(C)=C/[C@H](C1)O2: FALSE
- c1ccc(C(=NNc2nc3ccccc3o2)c2ccccn2)nc1: TRUE
- CC1(C)OC[C@@H]([C@@]2(CO[Si](C)(C)C(C)(C)C)CC=CC(=O)O2)O1: FALSE

###

Tested on: OVCAR-5 ovarian
assay-notes: NCI tumour cell line growth inhibition, 48 h
# TGI per record follows
measurement-name: TGI (µM)

* CCN(CC)CCOc1ccc(Nc2ncc3cc(-c4ccc(O)cc4)c(=O)n(C)c3n2)cc1 | 30.8
* COC(=O)c1c(C)ccc2c(O)c3c(cc12)C(=O)c1c2c(cc(O)c1C3=O)C1(C)OC(C)(O2)C(O)C(N(C)C)C1O (stereo not given) | 7.19
* C/C=C(\C)C(=O)N[C@H]1[C@@H](OC(C)=O)C[C@]2(C)C3CC[C@@]4(C)C(CC[C@@H]4C(C)N(C)C)C3CCC2[C@H]1O (stereo not given in full) | 28.2

###

# TGI per record follows
Test system: DMS 273 small cell lung
assay-notes: NCI tumour cell line growth inhibition, 48 h
measurement-name: TGI

* S=c1nc(Oc2ccc(Cl)c(Cl)c2)[nH]c(=S)[nH]1 | 50 µM
* COC1/C=C\C=C(/C)C(=O)Nc2cc3nc4ccc(Br)cc4oc-3c(c2=O)CC(C)CC(OC)C(O)C(C)/C=C(\C)C1OC(N)=O (configuration not stated) | 4.19 µM
* Cc1cccc(C)c1NC(=O)/C(Cl)=C(/Cl)C(=O)O | 35.9 µM
* CCCCCCCCCCC(C)CCCCCCC(=O)OCC(COP(=O)([O-])OCC[N+](C)(C)C)OC(=O)CCCCCCC(C)CCCCCCCCCC (configuration not stated) | > 100 µM
* COc1ccc(C(=O)C(c2ccc(OC)cc2)C2(O)C(=O)Nc3c(C)cc(Cl)cc32)cc1 (configuration not stated) | > 100 µM
* O=C1CCCCCCCCCCC(=O)C2CCOCCOCCOCCC1Cc1cccc(n1)C2 | > 100 µM
* COc1ccc(C2S/C(=C\c3cc(OC)c(OC)c(OC)c3)C(=O)N2NC(=O)Cc2ccccc2)cc1 (configuration not stated) | > 100 µM
* CC(C)=CC(=O)Oc1ccc([N+](=O)[O-])cc1 | > 100 µM
* OCC(O)C(O)C(O)C1SC(c2ccccc2)=NN1c1ccccc1 (configuration not stated) | > 100 µM
* Cn1nc(-c2ccccc2)c(N=[N+]=[N-])cc1=O | > 100 µM
* C\C=C/C=C/C=C/C(=O)O | > 100 µM
* C1CNCCNCCNCCN1 | > 100 µM

###

Tested on: HL-60(TB) leukemia
assay-notes: NCI tumour cell line growth inhibition, 48 h
# TGI per record follows
measurement-name: TGI

* O=C1C=C(N2CCCC2)C(=O)c2c(O)ccc(O)c21 | > 10 µM
* Cn1nc(-c2ccccc2)c(N=[N+]=[N-])cc1=O | > 100 µM
* [N-]=[N+]=NC1=NNC2(C(=O)N1)c1ccccc1-c1ccccc12 | > 100 µM
* Cc1ccc(S(=O)(=O)NC(=O)NC(Cc2ccccc2)C(=O)O)cc1 (configuration not stated) | > 100 µM
* CCOC(=O)CCCn1c(SC)nc2cc(-c3ccco3)[nH]c2c1=O | > 100 µM
* C1CNCCNCCNCCN1 | > 100 µM
* COc1ccc(/C=C2\CN(C(=O)C(Cl)Cl)C/C(=C\c3ccc(OC)c(OC)c3)C2=O)cc1OC | 0.711 µM
* O=C1OC(C2Cc3ccccc3C2=O)c2ccccc21 (configuration not stated) | > 100 µM
* COC(=O)COc1ccc(/C=C2\N=C(c3ccccc3)N(c3cc(C(F)(F)F)ccc3Cl)C2=O)cc1 | 63.4 µM
* N#CCc1ccc(C(C#N)/C(CCCC(=O)Nc2cccc([N+](=O)[O-])c2)=N\NC(=O)NN)cc1 (configuration not stated) | > 100 µM
* COC(=O)c1c(C)ccc2c(O)c3c(cc12)C(=O)c1c2c(cc(O)c1C3=O)C1(C)OC(C)(O2)C(O)C(N(C)C)C1O (configuration not stated) | 15.4 µM
* CC(=O)[CH-]C(=O)c1ccccc1.CC(=O)[CH-]C(=O)c1ccccc1.CC(=O)[CH-]C(=O)c1ccccc1.[Tl+3] | 16.9 µM
* Cc1nc2c(=O)[nH]c(=O)n(C)c2[nH]c1=O | > 100 µM
* CCCCCCCCCCC(C)CCCCCCC(=O)OCC(COP(=O)([O-])OCC[N+](C)(C)C)OC(=O)CCCCCCC(C)CCCCCCCCCC (configuration not stated) | > 100 µM
* c1ccc2c(c1)CCN(C1=NCCO1)C2 | > 10 µM
* OCc1c2c(cc3c1CC1(C3)Cc3cc4c(c(CO)c3C1)CCC4)CCC2 | 18.4 µM
* COC(=O)C1=C(O)C(C(=O)OC)[C@]2(O)[C@H](C(=O)OC)[C@H]1C[C@@H](c1cccc(OC)c1)[C@H]2C(=O)OC (some centres not stated) | > 100 µM
* O=C(c1cc(F)c(Cl)cc1Cl)N1N=C(c2ccccc2)CC1(O)c1ccccc1 (configuration not stated) | 41.2 µM
* O=C1c2n[nH]nc2C(=O)c2n[nH]nc21 | > 100 µM
* COc1ccccc1C1=C2C(=O)N(C)C(c3ccccc3OC)=C2C(=O)N1C | > 100 µM
* CN(C)CCCN=C(N)N | > 100 µM
* NC(CCl)=NC1CN2CCC1CC2 (configuration not stated) | > 100 µM

###

Tested on: SN12C renal
assay-notes: NCI tumour cell line growth inhibition, 48 h
measurement-name: GI50

• C=C1C(=O)O[C@@H]2C1C[C@@H](O)/C(C)=C/C/C=C(\C)CCC[C@H](C)[C@H]2OC(C)=O (some centres undefined) = 27.2 µM
• COc1cc(Cl)cc(-c2nn(C(=O)NCCN3CCN(C)CC3)cc2-c2ccncc2)c1 = 10.6 µM
• CC(=O)C1CC2(c3ccc(C)cc3)C(c3ccc(C)cc3)=C(c3ccc(C)cc3)C1(c1ccc(C)cc1)S2=O (centres undefined) = > 100 µM
• c1ccc2[nH]c(SSc3nc4ncncc4[nH]3)nc2c1 = 5.38 µM
• N#CC1=C(N)NC(=S)NC12Nc1ccccc1O2 (centres undefined) = 25.2 µM
• CCCCCNC(=O)[C@@H]1CCCN2C(=O)CC[C@H](NC(=O)[C@H](Cc3ccc(OP(=O)(O)O)cc3)NC(C)=O)C(=O)N12 = > 25 µM
• C/C=C(\C)C(=O)N[C@H]1[C@@H](OC(C)=O)C[C@]2(C)C3CC[C@@]4(C)C(CC[C@@H]4C(C)N(C)C)C3CCC2[C@H]1O (some centres undefined) = 5.55 µM
• CCCCCCCCCNCCCCCCCCC = 1.59 µM
• COc1ccc2nc(-c3ccccc3)cc(Nc3ccc(C(C)=O)cc3)c2c1 = 1.87 µM
